- MEASUREMENT_TARGET: HDM2 (Homo sapiens, UniProt Q00987)
- Construct: Recombinant HDM2 (1.5 μg per well) in TBS-BSA buffer
- Sequence (Q00987 whole entry): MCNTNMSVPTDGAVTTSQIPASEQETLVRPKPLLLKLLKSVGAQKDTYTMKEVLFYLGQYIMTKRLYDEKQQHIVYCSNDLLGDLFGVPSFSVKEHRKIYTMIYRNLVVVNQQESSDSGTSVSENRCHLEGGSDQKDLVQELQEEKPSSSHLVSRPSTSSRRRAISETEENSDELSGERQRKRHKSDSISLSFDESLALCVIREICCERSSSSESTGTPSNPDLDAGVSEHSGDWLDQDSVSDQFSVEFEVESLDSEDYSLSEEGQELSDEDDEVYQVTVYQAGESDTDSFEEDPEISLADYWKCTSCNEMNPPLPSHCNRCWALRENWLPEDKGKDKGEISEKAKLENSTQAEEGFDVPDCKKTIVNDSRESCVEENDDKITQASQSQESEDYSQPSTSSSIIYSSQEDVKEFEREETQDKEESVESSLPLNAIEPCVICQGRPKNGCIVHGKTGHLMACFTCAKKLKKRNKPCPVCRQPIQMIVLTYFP
- TEST_PROTOCOL: Fluorescence polarisation competitive HDM2 binding assay
- RUN_CONDITIONS: fluorescence polarisation format; Table 1; read-out: IC50 In vitro competitive HDM2 binding assay
QUANTITY: IC50 (µM)

O=S(=O)(Nc1ccc(Cl)cc1Cl)c1ccc(S(=O)(=O)c2ccccc2)s1 ... 305
Cc1ccc(S(=O)(=O)Nc2ccc(C(F)(F)F)cc2)cc1[N+](=O)[O-] ... 295
